EXPERIMENTAL TARGET: Nucleic Acid
TEST SUMMARY: Dissociation constant towards 16S rRNA construct A
Type: nucleic-acid assay
pKd: −log10 of the molar value.
MEASURED QUANTITY: pKd

Reference set (3 entries):
- COMPOUND: "NCC1O[C@H](O[C@H]2[C@@H](O)[C@H](O[C@H]3[C@H](O)[C@@H](N)C[C@@H](N)[C@@H]3O[C@H]3O[C@H](CN)[C@@H](O)[C@H](O)[C@H]3N)O[C@@H]2CSCCOCCSSCCOCCSC[C@H]2O[C@H](O[C@@H]3[C@@H](O)[C@H](O[C@H]4O[C@H](CN)[C@@H](O)C[C@H]4N)[C@@H](N)C[C@H]3N)[C@H](O)[C@@H](N)[C@@H]2O)[C@H](N)[C@@H](O)[C@@H]1O (stereo not given in full)"
  REPORTED VALUE: 6.39
- COMPOUND: "NC[C@H]1O[C@H](O[C@H]2[C@H](O)[C@@H](O[C@H]3O[C@H](CSCCOCCSSCCOCCSC[C@H]4O[C@H](O[C@@H]5[C@@H](O)[C@H](O[C@H]6O[C@H](CN)[C@@H](O)C[C@H]6N)[C@@H](N)C[C@H]5N)[C@H](O)[C@@H](N)[C@@H]4O)[C@@H](O)[C@H](N)[C@H]3O)[C@H](N)C[C@@H]2N)[C@H](N)C[C@@H]1O [Tobramycin-Tobramycin]"
  REPORTED VALUE: 5.75
- COMPOUND: "NCC1O[C@H](O[C@H]2[C@@H](O)[C@H](O[C@H]3[C@H](O)[C@@H](N)C[C@@H](N)[C@@H]3O[C@H]3O[C@H](CN)[C@@H](O)[C@H](O)[C@H]3N)O[C@@H]2CSCCOCCSSCCOCCSC[C@H]2O[C@@H](O[C@H]3[C@H](O)[C@@H](N)C[C@@H](N)[C@@H]3O[C@H]3O[C@H](CN)[C@@H](O)[C@H](O)[C@H]3N)[C@H](O)[C@@H]2O[C@@H]2OC(CN)[C@H](O)[C@@H](O)[C@@H]2N)[C@H](N)[C@@H](O)[C@@H]1O (stereo not given in full)"
  REPORTED VALUE: 6.49

I: NC[C@H]1O[C@H](O[C@H]2[C@H](O)[C@@H](O[C@H]3O[C@H](CO)[C@@H](O)[C@H](N)[C@H]3O)[C@H](N)C[C@@H]2N)[C@H](N)C[C@@H]1O [TOBRAMYCIN]
II: NC[C@@H]1O[C@H](O[C@H]2[C@@H](O)[C@H](O[C@@H]3[C@@H](O)[C@H](N)C[C@H](N)[C@H]3O[C@H]3O[C@H](CN)[C@@H](O)[C@H](O)[C@H]3N)O[C@@H]2CO)[C@H](N)[C@@H](O)[C@@H]1O [FRAMYCETIN]
[Q] Which value of pKd is smaller, the one for I or the one for II ? Write down the label of the entry you select.
[A] I
(I: 5.68, II: 6.36)
